# assayText: yeast display, Sf9 membrane polyspecificity reagent, FACS + sequencing; frameworks hold sequencing errors
measureName: polyreactivity (PSR sort gate)

[[record]]
residuesequence = "QVQLVESGGGLVQAGGSLRLSCAASGSIFFAYSMGWYRQAPGKERELVAAISWSDGSTYYADSVKGRFTISRDNAKNTVYLQMNSLKPEDTAVYYCDKVYRSIGPNVSRYGLSYYYWGQCTQVTVSS"
measuredvalue = "low polyreactivity"

[[record]]
residuesequence = "QVQLVESGGGLVQAGGSLRLSCAASGSTFLYNAMGWYRQAPWKERELVAAISWSGGSTYYADSVKGRFTISRDNAKNTVYLQMNSLKPEDTAVYYCAAEQRRFTGYDYWGQGTQVTVSS"
measuredvalue = "high polyreactivity"

[[record]]
residuesequence = "QVQLVESGGGLVQAGGSIRLSCAASGSTFYLYAMGWSRPAPGKERELVATITNGGGTNYADSVKGRFTISRDNEKNTVYIQMNTLKPEDTAVYYCAATWYHRDGDYWGQGTQVTVSS"
measuredvalue = "low polyreactivity"

[[record]]
residuesequence = "QVQLVESGGGLVQAGGSLRLSCAASGGIFQGYAMGWYRQAAGKERELVAAITRGGSTNYADSVKGRFTISRDNAKNTVYLQMNSLKPEDTAVYYFAARPRWFKGYDYWGQGTQVTVSS"
measuredvalue = "high polyreactivity"

[[record]]
residuesequence = "QVQLVESGGGLVQAGGSLRLSCAASGSTFYYNAMGWYRQAPGKEREFVAAITYTGGSTDYADSVKGRFTISRDNAKNTVYLQMNSLKPEDTAVYYCAKGTYGYISTWYDYWGQGTQVTVSS"
measuredvalue = "low polyreactivity"

[[record]]
residuesequence = "QVQLVESGGGLVQAGGSLRLSCAASGSTFKYYAMGWYRQAPAKERELVAAISARTGSTYYADSVKGRFTISRDNAKNTVYLQMNRLKPEDTAVYYCNKLTWRGEVDYWGQGTQVTVSS"
measuredvalue = "high polyreactivity"


## Input Kindly indicate its recorded polyreactivity (PSR sort gate). Item: "QVQLVESGGGLDQAGGSLRLSCAASGRTFGRYAMGWYRKAPGTERELVAAISWSGGSTYYADSVKGRFTISRDNAKNTVYLQMNSLKPEDTAVYYCAAYEHVYEYDYWGQGTQVTVSS"
## Output low polyreactivity

## Input Please report polyreactivity (PSR sort gate) for the following sequence: "QVQLVESGGGLVQAGGSLRLSCAASGSTSVQYAKGWYRQAPGKERELVAAIDRSGGSTSYADSVKGRFTISRDNAKNTVYLQMNSLKPEDTAVYYCNADPVRSTYSYDYWGLGTQVTVSS"
## Output low polyreactivity

## Input Please give the documented polyreactivity (PSR sort gate) of "QVQLVESGGGLVQAGGSLRLSCAASGSTFNVNAMGWYRQAPGKERELVAAISSDGITNYADSVKRRFTISRDNAKNTVYLQMNSLKPEDTAVYYCNADWTDGDWADMDYWGQGTQVTVSS"
## Output low polyreactivity

---

# assayText: yeast display, Sf9 membrane polyspecificity reagent, FACS + sequencing; frameworks hold sequencing errors
measureName: polyreactivity (PSR sort gate)

Some sequences with known polyreactivity (PSR sort gate) results, for comparison:
[[record]]
residuesequence = "QVQLVESGGGLVQAGGSLRLSCAASGRNFGYNAMGWYRQAPGKERELVAAITTSGGSTYYADSVKGRFTISRDNAKNTVYLQMNSLKPEDTAVYYCARDSLQVLYPYASDDSWGQGTQVTVSS"
measuredvalue = "low polyreactivity"

[[record]]
residuesequence = "QVQLVESGGGLVQAGGSLRLSCAASGSTFRYNAMGWYRQAPGKERELVAAINRGGGTDYADSVKGRFTISRDNAKNTVYLQMNSLKPEDTAVYYCAKQFVSYNRWLAYGYWGQGTQVTVSS"
measuredvalue = "low polyreactivity"

[[record]]
residuesequence = "QVQLVESGGGLVQAGGSLRLSCAASGIIFYKNDMGWYRQAPGKERELVAAINRSGGRTYYADSVKGRFTISRDNAKNTVYLQMNSLKPEDTAVYYCATDKVSHRRYDYWGQGTLVTVSS"
measuredvalue = "high polyreactivity"

[[record]]
residuesequence = "QVQLVESGGGLVQAGGSLRLSCAASGIIFRRYAMGWYRPEPGLVRELVAAISASGVRTYYADSVKGRFTISRDNAKNTVYFQMNSLKPEDTAVYYCAAATKRVEYEYWGQGTQVTVSS"
measuredvalue = "high polyreactivity"

[[record]]
residuesequence = "QVQLVESGGGLVQAGGSLRLICAASGLIFKVYAMGWYRQAPGKERELVAAITYSGGSTDYADSVKGRFTISRDNAKNTVYLQMNSLKPEDTAVYYCNVEKVGHVNSYGYDYWGQGTQVTVSS"
measuredvalue = "low polyreactivity"

[[record]]
residuesequence = "QVQLVESGGGLVQAGGSLRLSCAASGRIFNRYAMGWYRQAPGKERELVAAISSRGGSTFYADSVKGRFTISRDIAKNTVYLQMNSLKPVDTAVYYCATAWHRGVRGRTSGAFDYWGQGTQVTVSS"
measuredvalue = "high polyreactivity"

[[record]]
residuesequence = "QVQLVESGGGLVQAGGSLRLSCAASGSIFKVNAMGWYRQAPGKEWELVARTYYADSVKGRFTISRDNAKNTVYLQMNSLKPEDTAVYYCAASRGIYNPYDYWGQGTQVTVSS"
measuredvalue = "low polyreactivity"

[[record]]
residuesequence = "QVQLVESGGGLVQPGGSLRLSCAASGIIFGSYAMGWYRQAPGKERELFAAITKSGGSTFYADSVKGRYTISRDNAKNTVYLQMNSLKPEDTAVYYCTAVKYRYLEYNYWGQGTQVTVSS"
measuredvalue = "high polyreactivity"

[[record]]
residuesequence = "QVQLVESGGGLVQAGGSLRLSCAASGSILSTYAMGWYRQAPGKERELVASISSNAGSTYYADSVKGRFTISRDNAKNTVYLQMNSLKPEDTAVYYCATESYVEGDYWGQGTQVTVSS"
measuredvalue = "low polyreactivity"

[[record]]
residuesequence = "QVQLVESGGGLVQAGGSLRLSCAASVRTSGRYAMGWYRQAPGKERELVAAISWSGGSTYYADSVQGRFTSSRDNAKNTVYLQMNSLKPEDTAVYYCNAQHALGYYYWGQGTQVTVSS"
measuredvalue = "low polyreactivity"


From here, focus on the item given below.
## Input Quickly give me recorded polyreactivity (PSR sort gate) for "QVQLVESGGGLVQAGGSLRLSCAASGGTFRGYAMGWYRQATGKERELVAAITYSGGRTYYADSVKGRFTISRDNAKNTVYLQMNSLKPEDTAVYYCNAQSSGRLSYRYDYWGQGTQVTVSS"
## Output high polyreactivity

---

# assayText: yeast display, Sf9 membrane polyspecificity reagent, FACS + sequencing; frameworks hold sequencing errors
measureName: polyreactivity (PSR sort gate)

Before answering, review these 4 worked examples.
[[record]]
residuesequence = "QVQLVESGGGLVQAGGSLRISCAASGFTFPSYAMGWYRQAAGKERELVAAINRRGGSTNYADSVKGRFTISRDNAKNTDYLQMNSLKPEDTAVYYCAKQPRLGKYEYYYWGQGTQVTVSS"
measuredvalue = "high polyreactivity"

[[record]]
residuesequence = "QVQLVESGGGLVQAGGSLRLSCAASGSIFSTYVMVWYRQAPGKERELVAAITVSVGSTYYADSVKGRFTISRDNAKNTVYLQMNSLKPEDTAVYYCAAYGGTGYPFDAYYHDYDYWGQGTQVTVSS"
measuredvalue = "low polyreactivity"

[[record]]
residuesequence = "QVQLVESGGGLVQAGGSLRLSCAASGLTFVYYAMGWSRPAPGKERELVAAISRGGTTYYADSVKGRFTISRDNAKNTVYLQMNSLKPEDTAVYYCARVGRYRYEWGQGTQVTVSS"
measuredvalue = "high polyreactivity"

[[record]]
residuesequence = "QVQLVESGGGLVQAGGSLRLSCAASGRTFRLYAMGWYRQAPGKERELVASISRSVGSTYYADSVKGRFTISRDNAKNTVYLQMNSLKPEDTAVYYCAARSYIPGGWDGAYYYWGQGTQVTVSS"
measuredvalue = "high polyreactivity"


Next:
## Input Supply recorded polyreactivity (PSR sort gate) for "QVQLVESGGGLVQAGGSLRLSCAASGRTFLRYAMGWSRQAPGTETELVAAISSDGSTNYADSVKGRFTISRDNAKNTVYLQMNSLKPEDTAVYYCDADPQKWYTGYDYWGQGTQVTVSS" here.
## Output low polyreactivity

---

# assayText: yeast display, Sf9 membrane polyspecificity reagent, FACS + sequencing; frameworks hold sequencing errors
measureName: polyreactivity (PSR sort gate)

Here are 4 sequences together with their reported answers.
[[record]]
residuesequence = "QVQLVESGGGLVQAGGSLRLSCAASGRIFEPYTMGWYRQAPGKEREFVATITASGDSTYYADSVKGRFTISRDNAKNTVFLQMNSLKPEDTAVYYCAAAPFGGYEYDYWGQGTQVTVSS"
measuredvalue = "high polyreactivity"

[[record]]
residuesequence = "QVQLVESGGGLVQAGGSLRLSCAASGSIYLYAMGWYIQAPGKERELVADISFSDGSTYYADSVKGRFTISRDNAKNTVYLQMNSLKPEDTAVYYCAAGVWHHASWDFLEYYYWGQGTQVTVSS"
measuredvalue = "low polyreactivity"

[[record]]
residuesequence = "HVQLVESGGGLVQAGGSLRLSCAASGSIFIIYAMGWYRQAPGKERELVAAMDWSDGSTYYADSVKGRFTISRDNANNTVYLQMNSLKPEDTAVYYCNTQSRTLGWPLDYWGQGTQVTVSS"
measuredvalue = "high polyreactivity"

[[record]]
residuesequence = "QVQLVESGGGLVQAGGSLRLSCDASGAIFFSYAMRSYREAPGKERELVATITAGGGSTNYADSVKGRFTISRDNAKNTVYLQMNSLKAEDTAVYYSAAKRLSWHRYGYWGQGSQVTVSS"
measuredvalue = "low polyreactivity"


## Input Please report polyreactivity (PSR sort gate) for the following sequence: "QVQHVESGGGLVQAGGSLRLSCASSGRTFYEYAMGWYRQAPGKERELVAGITSGGSTNYADSVKGRFTISRDNAKNTVYLQMNSLKPEDTAVYYCAASYWGYEYDYWGQGTQVTVSS"
## Output low polyreactivity

Data provenance is the nanobody polyreactivity screen of Harvey et al. (2022).
